Biological target: GMPPNP-loaded KRAS G12C (Homo sapiens, UniProt P01116, G12C)
Sequence (P01116 1-188 isoform P01116-2 G12C): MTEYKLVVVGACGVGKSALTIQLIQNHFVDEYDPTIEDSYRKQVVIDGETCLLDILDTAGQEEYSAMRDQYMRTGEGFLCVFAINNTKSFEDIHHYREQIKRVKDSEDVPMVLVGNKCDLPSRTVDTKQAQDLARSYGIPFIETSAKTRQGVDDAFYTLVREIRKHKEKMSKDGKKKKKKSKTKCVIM
Experiment: KRAS G12C RAF Disruption Assay (HTRF)
Conditions: recombinant GMPPNP-loaded KRAS G12C (5 nM), 20 min with compound; GST-RAF1 RBD (9 nM); HTRF signal; read-out: KRASG12C RAF Disruption Assay (IC50)
Protocol: KRAS^G12C RAF Disruption Assay This is a functional assay that measures activity of compounds against KRAS-G12C^(ON), i.e., the active form of KRAS G12C. […] HTRF signal was measured (PerkinElmer Envision), the signal ratio (λem 520/λem 495) was calculated, and IC50 values were calculated from the dose-response curve.
readoutType: IC50 (nM)

Recorded IC50, per entry:
structuresmiles=CN1CCC[C@H]1COc1nc(N2CCN(C(=O)/C(F)=C/c3nccs3)[C@@H](CC#N)C2)c2cnc(-c3cccc4ccc(F)cc34)c(F)c2n1 observedresult=130
structuresmiles=C#Cc1cccc2cccc(-c3ncc4c(N5CCN(C(=O)/C(F)=C/c6ncccn6)CC5)nc(OC[C@@]56CCCN5C[C@H](F)C6)nc4c3F)c12 observedresult=187
structuresmiles=C#Cc1cccc2cccc(-c3ncc4c(N5CCN(C(=O)/C(F)=C/c6ccccn6)CC5)nc(OC[C@@H]5CCCN5C)nc4c3F)c12 observedresult=290
structuresmiles=N#CC[C@H]1CN(c2nc(OC[C@@]34CCCN3C[C@H](F)C4)nc3c(F)c(-c4cc(O)ccc4C(F)(F)F)ncc23)CCN1C(=O)/C(F)=C/c1nccs1 observedresult=14
structuresmiles=C#Cc1cccc2cccc(-c3ncc4c(N5CCN(C(=O)/C(F)=C/c6ccccn6)C[C@@H]5C)nc(OC[C@@]56CCCN5C[C@H](F)C6)nc4c3F)c12 observedresult=180
structuresmiles=Nc1nc2c(-c3ncc4c(N5CCN(C(=O)/C(F)=C/c6nccs6)CC5)nc(OC[C@@]56CCCN5C[C@H](F)C6)nc4c3F)c(F)cc(F)c2s1 observedresult=41

(1) C#Cc1c(F)ccc2cc(O)cc(-c3ncc4c(N5CCN(C(=O)/C(F)=C/c6cnccn6)CC5)nc(OC[C@@]56CCCN5C[C@H](F)C6)nc4c3F)c12
(2) C#Cc1ccc(F)c2cccc(-c3ncc4c(N5CCN(C(=O)/C(F)=C/c6ccccn6)CC5)nc(OC[C@@]56CCCN5C[C@H](F)C6)nc4c3F)c12
Compare IC50: is it lower for 1 or for 2 ? Choose, then provide that item's label. 1

(A) C#Cc1c(F)ccc2cccc(-c3ncc4c(N(C)[C@@H]5CCN(C(=O)/C(F)=C/c6ccccn6)C5)nc(OC[C@@]56CCCN5C[C@H](F)C6)nc4c3F)c12
(B) C#Cc1cccc2cccc(-c3ncc4c(N5CC[C@@H]6CN(C(=O)/C(F)=C/c7ccccn7)C[C@@H]65)nc(OC[C@@]56CCCN5C[C@H](F)C6)nc4c3F)c12
Compare IC50: is it lower for A or for B ? Choose, then provide that item's label. A
(A: 9 nM, B: 110 nM)

These data points were gathered from patent US20240067662A1.
